Data origin, for the record: PubChem BioAssay AID1259415

- Experiment summary: qHTS Assay for inhibitors of the human cytomegalovirus (HCMV); further: on the % scale 0 is the no-effect control and ±100 the full control effect
- Test parameters: HFF cells, HCMV-luciferase reporter, 72 h; at 57.5 µM
- Experimental: NCGC Assay Overview: Infection with human cytomegalovirus (HCMV) continues to pose significant threats for pregnant women and immunocompromised hosts. […] This is a cell-based assay for HCMV inhibition in HFFs cells. […] At 72 h post infection cell lysates were collected and luciferase activity was determined using the Glomax-Multi + Detection System (Promega, Madison, WI). […]
Hit rate of the full screen: of about 410,000 compounds, about 18,000 (4.4%) were called active. Inconclusive results (about 7%) are left out. No stated cut-off is given here; in the data, active means activity change below about -60%; inconclusive means no clear call, values can overlap the other calls; inactive means above about -39%. Many of the other results were omitted from the sample, so actives are more common in it than they were.
Outcome codes: active, inactive

{"Molecule": "Cc1ccc2c(=O)c(C(=O)c3cccc(Cl)c3)cn(CC(=O)NCc3ccccc3)c2n1", "Assigned class": "inactive"}
{"Molecule": "COc1cc2c(C(=O)N(C)c3cc(Cl)ccc3OC)cn(C)c(=O)c2cc1OC", "Assigned class": "inactive"}
{"Molecule": "Cn1cc([N+](=O)[O-])c(C(=O)Nc2ccc3c(c2)OCCO3)n1", "Assigned class": "active"}
{"Molecule": "CCc1ccc(C2C(C(=O)Nc3ccccc3)=C(C)Nc3c(C(=O)Nc4ccc(C)cc4)cnn32)cc1 (stereo not given)", "Assigned class": "inactive"}
{"Molecule": "COc1ccc(-c2nonc2NC(=O)c2oc3ccc(F)cc3c2C)cc1OC", "Assigned class": "inactive"}

---

- Experiment summary: qHTS Assay for inhibitors of the human cytomegalovirus (HCMV); further: on the % scale 0 is the no-effect control and ±100 the full control effect
- Test parameters: HFF cells, HCMV-luciferase reporter, 72 h; at 57.5 µM
In all, about 410,000 compounds went through this assay and about 18,000 (4.4%) were called active. Not shown: some 7% with an inconclusive outcome. Cut-off read from the data, not from the text of the source: active = activity change below about -60%; inconclusive = no clear call, values can overlap the other calls; inactive = above about -39%. This excerpt belongs to a sample that is enriched for actives.
Labels: YES = active, NO = inactive

{"Compound": "CCOC(=O)N1CCN(C(=O)COCc2cc(-c3ccc4c(c3)OCO4)on2)CC1", "Assigned class": "NO"}
{"Compound": "CC(C)c1nc(CNC(=O)CC2C(=O)NCCN2Cc2cccc(F)c2F)cs1 (stereo unspecified)", "Assigned class": "NO"}
{"Compound": "CSc1ccccc1NC(=O)CN(C)CC(=O)Nc1ccc(Cl)cc1[N+](=O)[O-]", "Assigned class": "NO"}
{"Compound": "COc1ccc(CN2CCNC(=O)C2CC(=O)NCc2cn[nH]c2-c2ccccc2)c(F)c1 (stereo unspecified)", "Assigned class": "YES"}
{"Compound": "O=C(Cn1c(=O)n(-c2ccc(F)cc2)c(=O)c2sccc21)Nc1cccc(C(F)(F)F)c1", "Assigned class": "NO"}
{"Compound": "COc1cccc(CNn2cn[nH]c2=S)c1OCc1ccccc1", "Assigned class": "NO"}
{"Compound": "Cc1ccc(O)c(-c2cc(C(=O)NCc3ccccc3)[nH]n2)c1", "Assigned class": "NO"}
{"Compound": "CC(C)NC(=O)COCc1cc(-c2ccc3c(c2)OCO3)on1", "Assigned class": "YES"}
{"Compound": "CCc1ccc(NC(=O)c2cnc3c(-c4ccccc4)c(C)nn3c2C)cc1", "Assigned class": "NO"}
{"Compound": "O=C(CC1C(=O)NCCN1Cc1ccc(-c2ccccc2)cc1)NCc1ccncc1 (stereo unspecified)", "Assigned class": "NO"}
{"Compound": "O=C(NCc1ccccc1)c1cc(-c2cccc(Cl)c2)on1", "Assigned class": "NO"}
{"Compound": "CCc1ccccc1N1C(=O)CN(S(=O)(=O)CC)CC1(C)C(=O)NC1CCCCC1 (stereo unspecified)", "Assigned class": "NO"}
{"Compound": "Cc1ccc(/C=N/NC(=O)C(NC(=O)c2ccccc2)c2n[nH]c(=O)c3ccccc23)cc1 (stereo unspecified)", "Assigned class": "NO"}
{"Compound": "COc1ccc(CNCCc2c[nH]c3ccccc23)cc1OC", "Assigned class": "NO"}
{"Compound": "C[C@H](CO)N1C[C@H](C)[C@H](CN(C)C(=O)c2ccncc2)OCc2ccccc2-c2c(n(C)c3ccccc23)C1=O", "Assigned class": "NO"}
{"Compound": "Cc1ccc(C(=O)Nc2cc3c(cc2N2CCCC2)n(C)c(=O)c(=O)n3C)cc1", "Assigned class": "NO"}
{"Compound": "O=C(CC1Oc2ccc(Cl)cc2NC1=O)NCc1ccccc1 (stereo unspecified)", "Assigned class": "NO"}
{"Compound": "CCc1c(C)nc2c(-c3ccccc3)c(C)nn2c1Nc1ccc(NC(C)=O)cc1", "Assigned class": "YES"}
{"Compound": "O=C(NCCc1csc(-c2ccc(C(F)(F)F)cc2)n1)C(=O)Nc1ccc(F)c(Cl)c1", "Assigned class": "NO"}
{"Compound": "CCOC(=O)c1cc2c(=O)n3ccccc3nc2n(CCCOC)c1=NC(=O)C(C)(C)Oc1ccc(Cl)cc1", "Assigned class": "NO"}
{"Compound": "COc1cccc(CCNC(=O)c2cccc(NC(=O)C3=C(C)OCCS3)c2)c1", "Assigned class": "NO"}

---

- Experiment summary: qHTS Assay for inhibitors of the human cytomegalovirus (HCMV); further: on the % scale 0 is the no-effect control and ±100 the full control effect
- Test parameters: HFF cells, HCMV-luciferase reporter, 72 h; at 57.5 µM
The campaign covered roughly 410,000 compounds. About 18,000 (4.4%) were called active. Roughly 7% stayed inconclusive and do not appear here. Cut-off read from the data, not from the text of the source: active = activity change below about -60%; inconclusive = no clear call, values can overlap the other calls; inactive = above about -39%. This excerpt belongs to a sample that is enriched for actives.
Possible outcomes: 1 (active), -1 (inactive)

{"Compound": "CSc1ccc(C2c3c(oc4ccccc4c3=O)C(=O)N2CCCN2CCOCC2)cc1 (stereo not given)", "Assigned class": -1}
{"Compound": "Cc1cccc(NC(=O)c2ccc3nc(C(C)C)oc3c2)c1C", "Assigned class": -1}
{"Compound": "CCC(=O)N1CCc2cc(S(=O)(=O)NC(C(=O)N3CCc4ccccc4C3)C(C)C)ccc21 (stereo not given)", "Assigned class": -1}
{"Compound": "COc1ccc(S(=O)(=O)N2CCOCC2)cc1NC(=O)CSc1cc(C)ccc1C", "Assigned class": -1}
{"Compound": "COc1ccc(S(=O)(=O)N2CCOCC2)cc1NC(=O)CSc1nnc(NC2CC2)s1", "Assigned class": -1}
{"Compound": "Nc1cc(N2CCCCCC2)c2nonc2c1[N+](=O)[O-]", "Assigned class": -1}
{"Compound": "CCCCNC(=O)c1cc(-c2ccc(Cl)c(Cl)c2)on1", "Assigned class": -1}
{"Compound": "COc1ccc(-n2nc(C(=O)NCCc3ccc(Cl)cc3)c3c4ccccc4n(C)c3c2=O)cc1Cl", "Assigned class": -1}
{"Compound": "COc1ccc(S(=O)(=O)N2CCOCC2)cc1NC(=O)CSc1ncnc2ccccc12", "Assigned class": 1}
{"Compound": "CCC(c1nc2ccccc2[nH]1)n1c(=O)c(-c2cccs2)nc2ccccc21 (stereo not given)", "Assigned class": -1}

---

- Experiment summary: qHTS Assay for inhibitors of the human cytomegalovirus (HCMV); further: on the % scale 0 is the no-effect control and ±100 the full control effect
- Test parameters: HFF cells, HCMV-luciferase reporter, 72 h; at 57.5 µM
In all, about 410,000 compounds went through this assay and about 18,000 (4.4%) were called active. Not shown: some 7% with an inconclusive outcome. No stated cut-off is given here; in the data, active means activity change below about -60%; inconclusive means no clear call, values can overlap the other calls; inactive means above about -39%. Only a selection was taken, and actives are over-represented in it overall.
Classes used: yes (1) for active, no (0) for inactive

{"Compound": "COc1ccc(NC(=O)C2(C)Cc3c(-c4cccc(NC(C)=O)c4)ccnc3O2)cc1 (stereo not given)", "Assigned class": "yes (1)"}
{"Compound": "CC(=O)Nc1ccc(-c2ccnc3c2CC(C(=O)NC(C)C)O3)cc1 (stereo not given)", "Assigned class": "no (0)"}
{"Compound": "COc1ccc(NC(=O)C2(C)Cc3c(-c4ccc(C(N)=O)cc4)ccnc3O2)cc1 (stereo not given)", "Assigned class": "no (0)"}
{"Compound": "Cc1cccc(OP(=O)(Oc2cccc(C)c2)OC(c2ccccc2)C(F)(F)F)c1 (stereo not given)", "Assigned class": "no (0)"}
{"Compound": "CC(C)CCN(C(=O)Nc1ccc(Cl)c(Cl)c1)C(C)c1cccs1 (stereo not given)", "Assigned class": "no (0)"}
{"Compound": "CC1(C(=O)NCC2CCOCC2)Cc2c(-c3cccc(C(N)=O)c3)ccnc2O1 (stereo not given)", "Assigned class": "no (0)"}
{"Compound": "O=C(NCCS(=O)(=O)NCc1ccc(F)cc1)c1ccccc1", "Assigned class": "no (0)"}
{"Compound": "CCN(CC)P(=O)(Oc1cccc(C)c1)N(CC)CC", "Assigned class": "yes (1)"}
{"Compound": "CC(=O)Nc1cccc(-c2ccnc3c2CC(C)(C(=O)NCc2ccccc2)O3)c1 (stereo not given)", "Assigned class": "yes (1)"}
{"Compound": "Cc1cccc(OP(=O)(Nc2c(C)n(C)n(-c3ccccc3)c2=O)Oc2cccc(C)c2)c1", "Assigned class": "no (0)"}

---

The reader will find reported activity change, negative = inhibition values listed item by item below.
- Experiment summary: qHTS Assay for inhibitors of the human cytomegalovirus (HCMV); further: on the % scale 0 is the no-effect control and ±100 the full control effect
- Test parameters: HFF cells, HCMV-luciferase reporter, 72 h; at 57.5 µM; active compounds read low
Hit rate of the full screen: of about 410,000 compounds, about 18,000 (4.4%) were called active. About 7% were inconclusive and are not listed. For the sample, actives were picked, then their nearest neighbours and some compounds at random.

{"Compound": "COc1ccc(N2C(=O)CS(=O)(=O)C23C(=O)N(Cc2ccc(C)cc2)c2ccccc23)cc1Cl (stereo not given)", "activity change, negative = inhibition (%)": -12.4}
{"Compound": "O=C(NNC(=O)c1ccccc1O)c1ccccc1O", "activity change, negative = inhibition (%)": -97}
{"Compound": "COC(=O)[C@]12C[C@H](CC(=O)NCCC(C)C)C(=O)N(CCc3ccc(OC)c(OC)c3)C1=C[C@H](C(C)(C)C)O[C@@H]2C", "activity change, negative = inhibition (%)": 13.1}
{"Compound": "Cn1c(-c2ccccc2)c[n+]2c1CCCCC2", "activity change, negative = inhibition (%)": -28.9}
{"Compound": "COc1cc(OC)c(C(=O)NNC(=O)c2ccccc2-n2cccc2)cc1OC", "activity change, negative = inhibition (%)": -25.6}
{"Compound": "C[C@]12CC[C@H](O)C[C@H]1CC[C@@H]1C2CC[C@]2(C)[C@@H](C3=CC(=O)OC3)[C@@H](O)C[C@]12O (stereo not given in full)", "activity change, negative = inhibition (%)": -99.6}
{"Compound": "Cc1ccc(NC(=O)CN(C)C(=O)Cn2nnc(-c3ccccc3)n2)cc1", "activity change, negative = inhibition (%)": -24.5}
{"Compound": "O=C(C[n+]1cc(-c2ccc(Cl)c(Cl)c2)n2c1CCC2)c1cccs1", "activity change, negative = inhibition (%)": -37.8}
{"Compound": "COc1ccc(NC(=O)NNC(=O)COc2cc(C)c(Cl)c(C)c2)c(OC)c1", "activity change, negative = inhibition (%)": -4.84}
{"Compound": "O=C(N/N=C/C=C/c1ccccc1)C1CC1(c1ccccc1)c1ccccc1 (stereo not given)", "activity change, negative = inhibition (%)": -22.7}
{"Compound": "CCn1nc(C(=O)Nc2ccc(N3CCOCC3)cc2)c2ccccc2c1=O", "activity change, negative = inhibition (%)": -3.67}
{"Compound": "Cc1ccc(NS(=O)(=O)c2ccc(C)c(NC(=O)COc3ccc4ccccc4c3)c2)c(C)c1", "activity change, negative = inhibition (%)": -81.5}
{"Compound": "Cc1c(Cl)cccc1NC(=O)C1CCCN(C(=O)c2cnn(-c3ccccc3)c2-n2cccc2)C1 (stereo not given)", "activity change, negative = inhibition (%)": -29.6}
{"Compound": "O=C(CO/N=C/c1ccccc1O)NNC(=O)c1ccccc1Cl", "activity change, negative = inhibition (%)": 35}
{"Compound": "C=CCOc1c(CNn2cn[nH]c2=S)cccc1OC", "activity change, negative = inhibition (%)": -4.48}
{"Compound": "O=C(c1ccc2c(c1)N(Cc1ccccc1)C(=O)c1ccccc1S2(=O)=O)N1CCC(Cc2ccccc2)CC1", "activity change, negative = inhibition (%)": 4.82}
{"Compound": "COc1ccc(Nc2ncnc3ccc(Br)cc23)c(OC)c1", "activity change, negative = inhibition (%)": -98.7}
{"Compound": "CC1=C(C)CC(C(=O)NNC(=O)c2csc3c2CCC(C(C)(C)C)C3)C(C(=O)O)C1 (stereo not given)", "activity change, negative = inhibition (%)": 35}
{"Compound": "CC(=O)[C@@]12O[C@@H]1C[C@H]1[C@@H]3CC[C@H]4C[C@@H](O)CC[C@]4(C)[C@H]3CC[C@@]12C", "activity change, negative = inhibition (%)": -16}
{"Compound": "O=C(CNS(=O)(=O)c1ccc2ccccc2c1)Nc1ccc(F)c(F)c1F", "activity change, negative = inhibition (%)": 0}
